Measured solubility values are reported for all entries that follow.
assay-explanation: Solubility of the compound in PBS buffer
Assay type: physicochemical

chem-smiles: CC(=O)O[C@@H](C)/C=C(/C)C(=O)N[C@@H]1C[C@H](C)[C@H](C/C=C(C)/C=C/[C@H]2OCC[C@@]3(CO3)[C@@H]2O)O[C@@H]1C
value-comparator: ≥
solubility (µM): 95

chem-smiles: CC(=O)O[C@@H](C)/C=C/C(=O)N[C@@H]1C[C@H](C)[C@H](C/C=C(C)/C=C/[C@H]2OCC[C@@]3(CO3)[C@@H]2O)O[C@@H]1C
value-comparator: =
solubility (µM): 94.7

chem-smiles: CO[C@]1(C)C[C@@]2(CO2)[C@H](O)[C@@H](/C=C/C(C)=C/C[C@@H]2O[C@H](C)[C@H](NC(=O)/C=C\[C@H](C)OC(C)=O)C[C@@H]2C)O1
value-comparator: ≥
solubility (µM): 95

chem-smiles: CC(=O)O[C@@H](C)CCC(=O)N[C@@H]1C[C@H](C)[C@H](C/C=C(C)/C=C/[C@H]2OCC[C@@]3(CO3)[C@@H]2O)O[C@@H]1C
value-comparator: ≥
solubility (µM): 95

chem-smiles: CC(=O)O[C@@H](C)/C=C\C(=O)N[C@@H]1C[C@H](C)[C@H](C/C=C(C)/C=C/[C@H]2OCC[C@@]3(CO3)[C@@H]2O)O[C@@H]1C
value-comparator: =
solubility (µM): 95

# credit: ChEMBL document CHEMBL5321242
